test system: HeLa cells; experiment: Compound screen by flow cytometry: HeLa cell count as surrogate readout of cell viability (z-scoreHeLa); format: cell-based, human; conditions: PKIS compound screen, replicate 1; also: test concentration or dose not given here
Would you kindly list z-scoreHeLa rep 1 for each of these molecules?
Numbers only.

Dear colleague, could you send me z-scoreHeLa rep 1 for each of the items below? Thanks.
1. COc1ccc(Nc2nccc(N3CCC(NC(=O)C(C)c4ccc(Cl)cc4)CC3)n2)cc1 (stereo not drawn) [GSK1379812A]
2. Cc1cccc(Cn2ccn3c(=O)cc(N4CCOCC4)nc23)c1 [GSK2297542A]
3. [O-][S+]1CCN(Cc2ccc(-c3ccc4ncnc(Nc5ccc(OCc6ccccc6)c(Cl)c5)c4c3)o2)CC1 [GW583373A]
4. COc1cc(Nc2nccc(N3CCC(NC(=O)C(C)c4ccc(Cl)cc4)C3)n2)cc(OC)c1OC (stereo not drawn) [GSK1379757A]
5. Cn1cc(-c2ccc3c(c2)CCN3C(=O)Cc2ccccc2Cl)c2c(N)ncnc21 [GSK2608885A]
6. Cc1cc(NCC(c2ccccc2)c2ccccc2)nc(NCc2ccc(C(F)(F)F)cc2)n1 [GW497681X]

1: 0.54; 2: 0.45; 3: 1.65; 4: 0.06; 5: -0.13; 6: -2.37
